- System: SNB-19 CNS
- testSummary: NCI tumour cell line growth inhibition, 48 h
# key: entry, value: TGI

compound	targetOrSystem	TGI
COC(=O)C1=C(C(=O)OC)SC2(S1)C1=C(CCCC1)SC(C(=O)OC)=C2C(=O)OC	SNB-19 CNS	30.2 µM
COc1ccc(Nc2c3ccccc3nc3occ(Cl)c23)cc1	SNB-19 CNS	> 38.2 µM
CCCCCC(=O)NC(=S)Nc1nn[nH]n1	SNB-19 CNS	> 100 µM
COc1ccc(/C=N/N=C(\N)NO)c(O)c1	SNB-19 CNS	> 10 µM
CCCC(C)NC1=C(NC(C)=O)C(=O)c2ccccc2C1=O (stereo not given)	SNB-19 CNS	> 100 µM
CCn1nc2c3c(ncn3C(C)(C)O2)c1=O	SNB-19 CNS	> 100 µM
O=C1[C@H]2ON(c3ccccc3)C(c3ccc(Cl)cc3)[C@H]2C(=O)N1c1ccc(Cc2ccc(N3C(=O)[C@@H]4ON(c5ccccc5)C(c5ccc(Cl)cc5)[C@@H]4C3=O)cc2)cc1 (stereo not given in full)	SNB-19 CNS	> 100 µM
CCC1(C(=O)OC(C)(C)C)OC12C(C)CCCC2C (stereo not given)	SNB-19 CNS	> 100 µM
COc1cccc(-n2c3nc(=O)n(C)c(=O)c-3nc3ccccc32)c1	SNB-19 CNS	74.3 µM
CCCCC1(CN2CCOCC2)S/C(=N/c2nc(CC(=O)OCC)cs2)NC1=O (stereo not given)	SNB-19 CNS	> 100 µM
